# tgt: Muscarinic acetylcholine receptor M4 (Homo sapiens, UniProt P08173)
# Sequence (P08173 whole entry): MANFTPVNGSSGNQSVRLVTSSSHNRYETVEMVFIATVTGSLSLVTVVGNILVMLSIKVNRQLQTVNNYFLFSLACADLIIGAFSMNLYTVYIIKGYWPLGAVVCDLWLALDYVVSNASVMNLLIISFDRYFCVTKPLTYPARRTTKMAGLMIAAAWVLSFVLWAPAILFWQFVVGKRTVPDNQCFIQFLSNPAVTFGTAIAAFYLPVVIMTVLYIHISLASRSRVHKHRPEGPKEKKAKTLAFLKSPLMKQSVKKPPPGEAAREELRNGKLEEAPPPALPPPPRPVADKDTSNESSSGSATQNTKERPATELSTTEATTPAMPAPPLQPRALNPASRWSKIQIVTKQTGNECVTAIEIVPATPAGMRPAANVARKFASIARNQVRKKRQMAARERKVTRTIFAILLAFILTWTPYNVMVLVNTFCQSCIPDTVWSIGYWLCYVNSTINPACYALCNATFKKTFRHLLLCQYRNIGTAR
# test: Displacement of [3H]-NMS from human muscarinic M4 receptor expressed in CHO-K9 cells after 3 hrs by microbeta2 scintillation counting method
# Type: cell-based
pKi: −log10 of the molar value.
Assign T to entries whose pKi meets or exceeds 8; assign F to the rest.

# example entries with known answers
{"item_smiles": "CCC(=O)NCCCCC1CCN(CC(=O)N2c3ccccc3NC(=O)c3ccccc32)CC1", "class_assignment": "F"}
{"item_smiles": "CC(=O)N[C@@H](CCCCN)C(=O)N[C@@H](C)C(=O)N[C@@H](CCCNC(=N)N)C(=O)NCCCCC1CCN(CC(=O)N2c3ccccc3NC(=O)c3ccccc32)CC1", "class_assignment": "F"}
{"item_smiles": "CC(=O)N[C@@H](Cc1ccc(O)cc1)C(=O)N[C@@H](C)C(=O)N[C@@H](CCCCN)C(=O)NCCN1CCN(CCCCC2CCN(CC(=O)N3c4ccccc4NC(=O)c4ccccc43)CC2)CC1", "class_assignment": "T"}
{"item_smiles": "CC(=O)N[C@@H](Cc1c[nH]c2ccccc12)C(=O)N[C@@H](C)C(=O)N[C@@H](Cc1ccc(O)cc1)C(=O)NCCN1CCN(CCCCC2CCN(CC(=O)N3c4ccccc4NC(=O)c4ccccc43)CC2)CC1", "class_assignment": "T"}
{"item_smiles": "CC(=O)N[C@@H](Cc1ccc(O)cc1)C(=O)N[C@@H](CCCCN)C(=O)NCCCCC1CCN(CC(=O)N2c3ccccc3NC(=O)c3ccccc32)CC1", "class_assignment": "F"}

Now, please, on to the next compound.
Incoming: Please indicate if the recorded pKi for `CC(=O)N[C@@H](CCCCN)C(=O)N[C@@H](C)C(=O)N[C@@H](Cc1ccc(O)cc1)C(=O)NCCCCC1CCN(CC(=O)N2c3ccccc3NC(=O)c3ccccc32)CC1` meets or exceeds 8.
Outgoing: F
